experiment.description: Cycloheximide Counterscreen for Small Molecule Inhibitors of Shiga Toxin
test.settings: cell reporter, cycloheximide protein synthesis inhibition counterscreen
Hit rate of the full screen: of about 300,000 compounds, about 37,000 (12%) were called active. Cut-off read from the data, not from the text of the source: active = max response mostly above about 13% (no sharp cut-off); inactive = mostly below about 14%. Shown is part of a subset that was picked to be rich in actives.
Field 'call' accepts y = active, n = inactive

{"compound": "C=CCNC(=O)c1cc2nc(C3CC3)cc(C(F)F)n2n1", "assigned.class": "n"}
{"compound": "COc1ccc(N2CCN(C(=O)CCc3nc(-c4ccc(C)cc4)no3)CC2)cc1", "assigned.class": "n"}
{"compound": "O=C(NCc1ccccn1)c1cc(-c2ccccc2Cl)on1", "assigned.class": "y"}

Query compound follows.
Field: outcome | Entry: N=c1oc2ccccc2cc1C(=O)N/N=C/c1ccccc1
y

----------
experiment.description: Cycloheximide Counterscreen for Small Molecule Inhibitors of Shiga Toxin
test.settings: cell reporter, cycloheximide protein synthesis inhibition counterscreen; stronger effect = higher value
Hit rate of the full screen: of about 300,000 compounds, about 37,000 (12%) were called active. Many of the other results were omitted from the sample, so actives are more common in it than they were.
measurement.label: max response (%)
Record the value in %, omitting the unit from your answer.

Worked examples follow.
{"compound": "CSc1ccc(/C=C/C(=O)NC23CC4CC(CC(C4)C2)C3)cc1", "measurement.label": "max response", "unit.descriptor": "%", "recorded.number": 49.9}
{"compound": "O=C(NC(=S)Nc1ccc(NC(=O)c2cccs2)cc1)c1ccc([N+](=O)[O-])cc1", "measurement.label": "max response", "unit.descriptor": "%", "recorded.number": 0.608}
{"compound": "CSCCC(=O)N1CCCC(CNC(=O)c2ccccc2Cl)C1 (stereo unspecified)", "measurement.label": "max response", "unit.descriptor": "%", "recorded.number": -3.24}

I have this compound here, NS(=O)(=O)c1ccc(NC(=S)NNC(=O)c2cccs2)cc1 , and I need its recorded max response.
29.3

Would you kindly repeat that for Oc1ccc(-c2onc3ccc(Cl)cc23)cc1 ?
15.4

Would you kindly repeat that for Cc1ccc(N2C(=O)CN=C2Nc2nc(C)cc(C)n2)cc1 ?
-2.81

Would you kindly repeat that for CCCC(C)NC(=O)C1CCN(C(=O)C2CC(=O)N(c3ccc(C)cc3)C2)CC1 (stereo unspecified) ?
-4.68

Would you kindly repeat that for Cc1ccc(C(=O)NC23CC4CC(CC(C4)C2)C3)c(Cl)c1 ?
11.3

Would you kindly repeat that for O=C(NCCS(=O)(=O)c1ccc(Br)cc1)c1ccccc1Cl ?
-3.1

Would you kindly repeat that for CCc1nnc(NS(=O)(=O)c2ccc(NC(=S)NC(=O)c3cccs3)cc2)s1 ?
0.706

Would you kindly repeat that for Cc1ccc(C)c(NC2=NCC(=O)N2c2ccc3c(c2)OCCO3)c1 ?
17.5

----------
Catalogue of compounds with associated max response
experiment.description: Cycloheximide Counterscreen for Small Molecule Inhibitors of Shiga Toxin; note: read at 38.3 µM for the half of the compounds with a filed dose; 0% is about no effect
test.settings: cell reporter, cycloheximide protein synthesis inhibition counterscreen; stronger effect = higher value
Out of some 300,000 compounds screened, about 37,000 (12%) were called active. The entries come from a sample that favours actives as a whole.

{"compound": "Cc1cc(C)c(S(=O)(=O)NCC2CCC(C(=O)NCc3ccc4c(c3)OCO4)CC2)c(C)c1 (stereo not given)", "max response": "-0.416% (inactive)"}
{"compound": "O=C(O)C1CCCCC1C(=O)N1CCN(S(=O)(=O)c2ccc(F)cc2)CC1 (stereo not given)", "max response": "-2.39% (inactive)"}
{"compound": "CC1CCCN(CC(=O)Nc2cc(Cl)ccc2Oc2ccccc2)C1 (stereo not given)", "max response": "8.16% (inactive)"}

I have this compound here, O=C1Oc2ccccc2C(=O)/C1=C/c1ccccc1O , and I need its recorded max response.
12.4% (inactive)

Would you kindly repeat that for CCOc1ccccc1CNS(=O)(=O)c1cc(-c2cc(C)no2)ccc1C ?
5.17% (inactive)

Would you kindly repeat that for N#C[C@]1(S(=O)(=O)c2ccccc2)C[C@@H]2ON=C(c3cccc(Br)c3)[C@@H]2C1 ?
0.173% (inactive)

Would you kindly repeat that for CC(=O)Nc1ccc(NC(=O)CN2CCCC(C)C2)c(Cl)c1 (stereo not given) ?
22.7% (active)

Would you kindly repeat that for COCCNC(=O)C1CCN(C(=O)C2CC(=O)N(c3ccc(C)cc3)C2)CC1 (stereo not given) ?
1.44% (inactive)

Would you kindly repeat that for O=C(CN1CCOCC1)Nc1ccc(NC(=O)CN2CCOCC2)c(Cl)c1 ?
-4.13% (inactive)

Would you kindly repeat that for O=C(CCN1C(=O)C2C3CCC(C3)C2C1=O)Nc1ccc(Cl)cc1Cl (stereo not given) ?
3.53% (inactive)

----------
Catalogue of compounds with associated max response
experiment.description: Cycloheximide Counterscreen for Small Molecule Inhibitors of Shiga Toxin; note: read at 38.3 µM for the half of the compounds with a filed dose; 0% is about no effect
test.settings: cell reporter, cycloheximide protein synthesis inhibition counterscreen; stronger effect = higher value
Screen size: about 300,000 compounds; about 37,000 (12%) were called active. Shown is part of a subset that was picked to be rich in actives.
Record the value in %, omitting the unit from your answer.

{"compound": "CC1CCN(CC(O)COc2ccc(C(=O)c3ccccc3)cc2)CC1 (stereo not given)", "max response, %": -1.82}
{"compound": "Cc1ccc(S(=O)(=O)/N=C(/Nc2ccc3[nH]c(=O)[nH]c3c2)c2ccccc2)cc1", "max response, %": -2.26}
{"compound": "O=C(COc1ccc(S(=O)(=O)N2CCCCC2)cc1)NCc1ccccn1", "max response, %": 0.485}
{"compound": "COc1cc(OC)c(NC(=O)C2CCCN2C(=O)OCc2ccccc2)cc1Cl (stereo not given)", "max response, %": -2.36}

I have this compound here, Cc1ccc2c(C)c(C(=O)N3CCC(N4CCC(C(=O)NC5CC5)CC4)CC3)oc2c1 , and I need its recorded max response.
0.384

Would you kindly repeat that for CC(c1ccco1)N(C(=O)COc1ccccc1[N+](=O)[O-])c1ccccn1 (stereo not given) ?
20.7

Would you kindly repeat that for Cc1c(-c2nn(C)c(=O)c3ccccc23)oc2ccc(F)cc2c1=O ?
-8.42

Would you kindly repeat that for Cc1ccc(S(=O)(=O)/N=C(/Nc2ccccn2)c2ccc(Cl)cc2)cc1 ?
18.6

Would you kindly repeat that for COc1cccc(CN2CCN(Cc3ccc4cccc(F)c4n3)CC2CCO)c1 (stereo not given) ?
-3.47

Would you kindly repeat that for CC(c1ccco1)N(C(=O)c1ccc(S(=O)(=O)N2CCCCC2)cc1)c1ccccn1 (stereo not given) ?
15.1

----------
experiment.description: Cycloheximide Counterscreen for Small Molecule Inhibitors of Shiga Toxin; note: read at 38.3 µM for the half of the compounds with a filed dose; 0% is about no effect
test.settings: cell reporter, cycloheximide protein synthesis inhibition counterscreen; stronger effect = higher value
Among all 300,000 compounds or so, about 37,000 (12%) were called active. The full list was thinned out, with actives kept by preference.
measurement.label: max response (%)
Record the value in %, omitting the unit from your answer.

{"molecule": "O=C(Nc1ccc(S(=O)(=O)N2CCCCCC2)cc1)c1c(F)cccc1F", "recorded.number": 16.3}

I have this molecule here, CCCc1nnc(NC(=O)CCC(=O)N2CCN(S(=O)(=O)c3ccc(OC)cc3)CC2)s1 , and I need its recorded max response.
-3.02

Would you kindly repeat that for CCOC(=O)c1ccccc1N1C(=O)C2Sc3[nH]c(=O)sc3C(/C=C/c3ccccc3)C2C1=O (stereo not given) ?
-1.12

Would you kindly repeat that for O=C(CN1CCCCCC1)Nc1ccc(S(=O)(=O)N2CCCCC2)cc1 ?
-2.88

Would you kindly repeat that for O=C(Nc1cccc(F)c1)c1ccc(S(=O)(=O)N2CCCC2)cc1 ?
-1.88

----------
experiment.description: Cycloheximide Counterscreen for Small Molecule Inhibitors of Shiga Toxin; note: read at 38.3 µM for the half of the compounds with a filed dose; 0% is about no effect
test.settings: cell reporter, cycloheximide protein synthesis inhibition counterscreen; stronger effect = higher value
In all, about 300,000 compounds went through this assay and about 37,000 (12%) were called active. This is one part of a sample in which actives are shown more often than they occur.
Catalogue of compounds with associated max response
Record the value in %, omitting the unit from your answer.

{"compound": "O=C(NCc1ccccc1Cl)C1CCCN1S(=O)(=O)c1ccc(F)cc1 (stereo unspecified)", "max response [%]": -3.67}
{"compound": "CCOc1ccc2nc(NC(=O)CSc3nc4c(c(=O)n(C)c(=O)n4C)n3CC)sc2c1", "max response [%]": -6.89}
{"compound": "CC(NCc1nc2ccccc2n1C)C12CC3CC(CC(C3)C1)C2 (stereo unspecified)", "max response [%]": -1.92}

I have this compound here, O=C1c2ccccc2C(=O)N1c1cccc2ccccc12 , and I need its recorded max response.
-0.411

Would you kindly repeat that for COc1cc(Cl)c(C)cc1NC(=O)[C@@H]1CCCN1C(=O)c1cccs1 ?
-0.643

Would you kindly repeat that for CCOC(CNC(=O)C1CCN(S(=O)(=O)c2ccc3nc4c(c(C(=O)O)c3c2)CC(C)CC4)CC1)OCC (stereo unspecified) ?
-3.45

Would you kindly repeat that for CCn1c(SCC(=O)NC2CCCC2)nnc1-c1ccoc1C ?
-1.45

Would you kindly repeat that for CCOc1cc(NC(=S)NCc2ccco2)c(OCC)cc1NC(=O)c1ccco1 ?
6.2
